Overview of reported T/C across a group of compounds:
# Test system: B6C3F1 mice, Lewis lung carcinoma iv, survival T/C
# measurement_notes: NCI In Vivo Anticancer Drug Screen. Data for tumor model Lewis Lung Carcinoma (intravenous) in B6C3F1 mice
# conditions_used: endpoint: median survival time; dose: 64.0 mg/kg/injection; schedule: Q01DX009 (ip); vehicle: saline with Tween-80; higher = longer survival
Toxic doses and inconclusive results are not listed.

>  <sample_smiles>
Cc1[nH]ccc(=O)c1O

>  <result_type>
T/C

>  <result>
101 % of control

$$$$
>  <sample_smiles>
O=c1[nH]cccc1O

>  <result_type>
T/C

>  <result>
103 % of control

$$$$
>  <sample_smiles>
CNC(=O)Oc1ccc[nH]c1=O

>  <result_type>
T/C

>  <result>
104 % of control

$$$$

Moving on to another compound below.
# get_value(readout='T/C', item= Cc1c(O)ccc(=O)n1O ) 103 % of control
